system: U2OS; test: Multiplex assay against U2OS; type: toxicity, cell-based; conditions: human, 48 h, 10 µM, compound concentration 10 uM, replicate 1
Attribute Measured: Total Cell Count

IN: Given CN1C[C@H](C(=O)N[C@]2(C)O[C@@]3(O)[C@@H]4CCCN4C(=O)[C@H](Cc4ccccc4)N3C2=O)C[C@@H]2c3cccc4[nH]cc(c34)C[C@H]21.CS(=O)(=O)O [DIHYDROERGOTAMINE MESYLATE] , respond with its Total Cell Count.
OUT: 452

IN: Input Cc1ccc(OCC(O)C(C)NC(C)C)c2c1CCC2.Cl (configuration not stated) , output reported Total Cell Count.
OUT: 306

IN: Supply Total Cell Count value. Item: `O=c1nc2[nH]c3ccccc3nc-2c(=O)[nH]1`
OUT: 321

IN: # return recorded Total Cell Count for input CN(C)C/C=C/C(=O)Nc1ccc(C(=O)N2CCCC(Nc3ncc(Cl)c(-c4c[nH]c5ccccc45)n3)C2)cc1 (configuration not stated)
OUT: 251

IN: Return reported Total Cell Count. Input compound: COCCCN1CCC(NC(=O)c2cc(Cl)c(N)c3c2OCC3)CC1 [PRUCALOPRIDE]
OUT: 347

IN: Determine its reported Total Cell Count: `O=C(Nc1cc(-c2ccccc2)nn1-c1ccccc1F)c1ccc([N+](=O)[O-])cc1`
OUT: 445

IN: Identify Total Cell Count associated with the compound `Cc1nn(C)c2nc(NNC(=O)Nc3cc(Cl)nc(Cl)c3)cc(C(C)C)c12`
OUT: 244
